Reference source for all entries: the kinase profiling compilation of Christmann-Franck et al. (2016)

- assayed_target: HCK (human) (UniProt P08631)
- Sequence (P08631 whole entry, looked up): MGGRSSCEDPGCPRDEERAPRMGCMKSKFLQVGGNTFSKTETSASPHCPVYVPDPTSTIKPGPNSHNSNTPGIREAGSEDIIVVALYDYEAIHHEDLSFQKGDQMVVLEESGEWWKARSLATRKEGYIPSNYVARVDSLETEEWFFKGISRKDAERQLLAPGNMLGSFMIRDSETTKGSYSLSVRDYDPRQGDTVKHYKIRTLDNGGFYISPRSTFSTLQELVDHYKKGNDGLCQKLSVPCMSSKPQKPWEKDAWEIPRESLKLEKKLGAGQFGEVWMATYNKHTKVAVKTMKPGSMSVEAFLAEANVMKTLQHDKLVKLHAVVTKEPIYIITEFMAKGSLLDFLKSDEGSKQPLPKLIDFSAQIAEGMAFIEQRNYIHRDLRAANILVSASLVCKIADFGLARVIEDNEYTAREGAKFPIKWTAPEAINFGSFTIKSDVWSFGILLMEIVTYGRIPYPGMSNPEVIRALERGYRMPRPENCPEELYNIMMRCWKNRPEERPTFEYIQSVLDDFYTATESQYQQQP
- assay_notes: radiometric filter-binding kinase assay, Kinase HotSpot
- particulars: compound 0.5 µM; ATP 10 µM
measured_attribute: residual activity

smiles_entry | value_measured
C[C@@H]1CCN(C(=O)CC#N)C[C@@H]1N(C)c1ncnc2[nH]ccc12 | 88.3%
O=C1NC(=O)c2c1c1c3ccccc3[nH]c1n1cncc21 | 94.6%
O=C1C(Cl)=C(N2C(=O)CCC2=O)C(=O)c2ccccc21 | 94.2%
COc1cc2ncnc(Nc3ccc(Oc4ccccc4)cc3)c2cc1OC | 13.5%
c1ccc2c(-c3ccncc3)c[nH]c2c1 | 99.5%
O=C1c2ccccc2-c2nc3nnnn3nc21 | 84%
COc1ccc(C(=O)Nc2sc3c(c2C(N)=O)CCCC3)cc1OC | 109%
O=C1Nc2ccc(Br)cc2/C1=C\c1cc2c([nH]1)CCCC2 | 88.5%
N#Cc1c[nH]c2c[nH]/c(=N\Cc3cccnc3)cc2/c1=N\c1ccc(F)c(Cl)c1 | 92.5%
Cc1nc(-c2ccccc2)c(-c2ccncc2)o1 | 98.9%
CCCCc1c(-c2ccc(OC)cc2)[nH]c2nccnc12 | 94.4%

###

- assayed_target: CDK9 CCNT1 (human) (UniProt P50750+O60563)
- Sequence (O60563 whole entry, looked up): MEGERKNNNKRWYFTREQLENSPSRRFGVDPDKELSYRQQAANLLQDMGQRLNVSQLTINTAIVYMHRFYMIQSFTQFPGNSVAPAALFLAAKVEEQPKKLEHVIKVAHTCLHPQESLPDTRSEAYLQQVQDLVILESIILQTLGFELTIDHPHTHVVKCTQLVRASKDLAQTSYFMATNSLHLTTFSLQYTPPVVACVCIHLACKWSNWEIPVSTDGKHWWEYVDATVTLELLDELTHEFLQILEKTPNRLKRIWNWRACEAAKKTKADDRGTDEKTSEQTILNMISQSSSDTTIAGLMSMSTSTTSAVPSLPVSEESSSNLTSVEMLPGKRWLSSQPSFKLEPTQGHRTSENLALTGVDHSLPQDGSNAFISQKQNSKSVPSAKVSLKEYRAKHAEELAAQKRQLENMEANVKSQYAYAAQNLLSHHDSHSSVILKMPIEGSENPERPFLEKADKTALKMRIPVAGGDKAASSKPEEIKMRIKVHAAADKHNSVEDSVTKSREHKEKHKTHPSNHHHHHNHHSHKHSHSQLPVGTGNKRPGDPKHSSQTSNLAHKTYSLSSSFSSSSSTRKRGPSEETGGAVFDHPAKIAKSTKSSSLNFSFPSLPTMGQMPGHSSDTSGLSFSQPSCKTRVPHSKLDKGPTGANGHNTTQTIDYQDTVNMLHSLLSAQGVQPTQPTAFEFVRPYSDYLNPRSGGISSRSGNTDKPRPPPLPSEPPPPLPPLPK
- Sequence (P50750 whole entry, looked up): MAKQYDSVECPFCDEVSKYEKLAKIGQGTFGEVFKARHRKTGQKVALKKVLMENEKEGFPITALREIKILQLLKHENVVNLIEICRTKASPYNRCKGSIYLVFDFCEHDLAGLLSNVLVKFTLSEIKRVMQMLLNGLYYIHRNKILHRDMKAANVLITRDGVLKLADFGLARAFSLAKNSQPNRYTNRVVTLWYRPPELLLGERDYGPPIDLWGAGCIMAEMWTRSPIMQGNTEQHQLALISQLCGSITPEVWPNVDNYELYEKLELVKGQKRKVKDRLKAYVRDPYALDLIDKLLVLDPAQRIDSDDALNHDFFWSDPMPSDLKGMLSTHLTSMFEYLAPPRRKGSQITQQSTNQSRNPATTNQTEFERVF
- assay_notes: radiometric filter-binding kinase assay, Kinase HotSpot
- particulars: compound 0.5 µM; ATP 10 µM

smiles_entry | residual activity, %
Fc1ccc(-c2nc3n(c2-c2ccncc2)CCS3)cc1 | 94.9
CN1CCN(c2ccc3nc(-c4c(N)c5c(F)cccc5[nH]c4=O)[nH]c3c2)CC1 | 97.7
COc1ccc(Cl)cc1NC(=O)Nc1cc(C)nc2ccccc12 | 98.2

###

- assayed_target: PKN1 (human)
- assay_notes: radiometric filter-binding kinase assay, Kinase HotSpot
- particulars: compound 0.5 µM; ATP 10 µM

smiles_entry | assayed_target | unit_tag | residual activity
NC(=O)c1cccc(-c2cc(Nc3ccc(OC(F)(F)F)cc3)ncn2)c1 | PKN1 (human) | % | 98.9
O=C1C(Cl)=C(N2C(=O)CCC2=O)C(=O)c2ccccc21 | PKN1 (human) | % | 108
CN(C)S(=O)(=O)c1ccc2c(c1)/C(=C/c1cc3c([nH]1)CCCC3)C(=O)N2 | PKN1 (human) | % | 91.2
CS(=O)(=O)CCNCc1ccc(-c2ccc3ncnc(Nc4ccc(OCc5cccc(F)c5)c(Cl)c4)c3c2)o1 | PKN1 (human) | % | 106
CCCCc1c(-c2ccc(OC)cc2)[nH]c2nccnc12 | PKN1 (human) | % | 89.1
COc1cc2ncnc(Nc3ccc(Oc4ccccc4)cc3)c2cc1OC | PKN1 (human) | % | 97.3
O=C1NC(=O)c2c1c1c3ccccc3[nH]c1n1cncc21 | PKN1 (human) | % | 76.4
COc1ccc2c(c1)c(C1=C(c3c[nH]c4ccccc34)C(=O)NC1=O)cn2CCCN(C)C | PKN1 (human) | % | 34.7
Cc1nc(-c2ccccc2)c(-c2ccncc2)o1 | PKN1 (human) | % | 101
COc1cc(Nc2c(C#N)cnc3cc(OCCCN4CCN(C)CC4)c(OC)cc23)c(Cl)cc1Cl | PKN1 (human) | % | 74.2
N#C/C(=C\c1ccc(O)c(O)c1)C(=O)NCc1ccccc1 | PKN1 (human) | % | 97.6
Fc1ccc(-c2nc3n(c2-c2ccncc2)CCS3)cc1 | PKN1 (human) | % | 101
COc1ccc(C(=O)Nc2sc3c(c2C(N)=O)CCCC3)cc1OC | PKN1 (human) | % | 96.3
Cc1cncc2cccc(S(=O)(=O)N3CCCN(C(=O)CN)C[C@H]3C)c12 | PKN1 (human) | % | 25.3
O=C1c2ccccc2-c2nc3nnnn3nc21 | PKN1 (human) | % | 97.5
C[C@@H]1CCN(C(=O)CC#N)C[C@@H]1N(C)c1ncnc2[nH]ccc12 | PKN1 (human) | % | 16.5
COc1ccc2c(c1)/C(=C/c1cnc[nH]1)C(O)=N2 | PKN1 (human) | % | 87.4
COc1ccc(Cl)cc1NC(=O)Nc1cc(C)nc2ccccc12 | PKN1 (human) | % | 104
CC(C)(C)c1cc(C=C(C#N)C#N)cc(Br)c1O | PKN1 (human) | % | 94.5
Cc1cccc(-c2nc(C(C)(C)C)[nH]c2-c2ccc3c(c2)OCO3)n1 | PKN1 (human) | % | 108
